Data credit: PubChem BioAssay AID449745

Target: Zinc finger protein mex-5 (Caenorhabditis elegans) (UniProt Q9XUB2)
Sequence (Q9XUB2 whole entry, looked up): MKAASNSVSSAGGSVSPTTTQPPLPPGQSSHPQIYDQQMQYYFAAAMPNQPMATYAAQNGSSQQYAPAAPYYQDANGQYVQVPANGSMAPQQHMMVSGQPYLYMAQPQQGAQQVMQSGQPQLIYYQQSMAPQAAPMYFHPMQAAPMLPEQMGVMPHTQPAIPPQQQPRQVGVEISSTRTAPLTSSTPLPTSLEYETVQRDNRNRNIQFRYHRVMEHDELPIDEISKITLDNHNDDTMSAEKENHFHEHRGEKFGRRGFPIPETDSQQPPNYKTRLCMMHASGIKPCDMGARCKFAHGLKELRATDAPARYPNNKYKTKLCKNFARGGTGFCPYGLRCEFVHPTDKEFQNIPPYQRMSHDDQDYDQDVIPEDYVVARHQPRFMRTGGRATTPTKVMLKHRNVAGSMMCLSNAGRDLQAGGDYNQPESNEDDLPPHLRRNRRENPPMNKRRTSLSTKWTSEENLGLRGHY
Test: MEX-5 RNA-binding inhibition confirmation – biochemical, C. elegans, fluorescence polarization, dose retest (AID 449745);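 also: potency is for blocking Mex-5 binding to labeled TCR2 RNA like unlabeled competitor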
Settings: Mex-5 / TCR-2 RNA binding
Results filed as inconclusive are left out. Active and inactive are the calls of the source. No rule for the calls is given here.
Classes to choose from: 1 (active), 0 (inactive)

Reference set, count: 4
{"COMPOUND": "CCCCC1=CC2=C(c3ccco3)C(=O)C(C)(OC(=O)c3ccc(OC)cc3)C(=O)C2=CN1C(CO)CO (stereo unspecified)", "CLASS_NAME": 0}
{"COMPOUND": "O=C1c2cccc3cccc(c23)C(=O)C1(O)O", "CLASS_NAME": 1}
{"COMPOUND": "Cn1c(=O)c(Nc2ccc(Cl)cc2)c2c3c(cccc31)C(=O)c1ccccc1-2", "CLASS_NAME": 1}
{"COMPOUND": "COC(=O)c1cc(O)c(O)c(O)c1", "CLASS_NAME": 1}

// query Hello, I am checking results. What call was entered for Cc1c(N=NC2=C(O)CCCC2=O)c(=O)n(-c2ccccc2)n1C ?
// result 0

// query Hello, I am checking results. What call was entered for CN(C)c1ccc(N=Cc2nc(-c3ccccc3)oc2OC(=O)c2cccc(Br)c2)cc1 ?
// result 0

###

Molecular target: Zinc finger protein mex-5 (Caenorhabditis elegans) (UniProt Q9XUB2)
Test: MEX-5 RNA-binding inhibition confirmation – biochemical, C. elegans, fluorescence polarization, dose retest (AID 449745)
Conditions: Mex-5 / TCR-2 RNA binding
Results filed as inconclusive are left out. No rule for the calls is given here.
Classes to choose from: active, inactive

// query Hello, I am checking results. What call was entered for Brc1ccc(C2=CC(c3cccs3)n3ncnc3N2)cc1 (stereo not given) ?
// result active

###

Molecular target: Zinc finger protein mex-5 (Caenorhabditis elegans)
Assay: MEX-5 RNA-binding inhibition confirmation – biochemical, C. elegans, fluorescence polarization, dose retest (AID 449745);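 also: potency is for blocking Mex-5 binding to labeled TCR2 RNA like unlabeled competitor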
Conditions: Mex-5 / TCR-2 RNA binding
Results filed as inconclusive are left out. Active and inactive are the calls of the source. The rule behind the calls is not given here.
Classes to choose from: active, inactive

{"MOLECULE": "COc1ccc(OC)c(N2C(=O)NC(=O)/C(=C/c3ccc([N+](=O)[O-])s3)C2=O)c1", "ASSAY_TARGET": "Zinc finger protein mex-5 (Caenorhabditis elegans)", "CLASS_NAME": "active"}
{"MOLECULE": "Cc1ccc(N=C2NC(=O)/C(=C\\c3ccc(C)s3)S2)cc1", "ASSAY_TARGET": "Zinc finger protein mex-5 (Caenorhabditis elegans)", "CLASS_NAME": "inactive"}
{"MOLECULE": "O=C1c2cccc3c(Cl)ccc(c23)C(=O)N1O", "ASSAY_TARGET": "Zinc finger protein mex-5 (Caenorhabditis elegans)", "CLASS_NAME": "active"}
{"MOLECULE": "Cc1cc(/C=C2\\SC(=S)N(Cc3ccco3)C2=O)c(C)n1-c1ccccc1", "ASSAY_TARGET": "Zinc finger protein mex-5 (Caenorhabditis elegans)", "CLASS_NAME": "active"}
{"MOLECULE": "COc1ccc(/C=C/C(=O)c2c(O)n(CCC3=CCCCC3)c(=O)[nH]c2=O)cc1", "ASSAY_TARGET": "Zinc finger protein mex-5 (Caenorhabditis elegans)", "CLASS_NAME": "inactive"}
{"MOLECULE": "O=C(O)c1cc(O)c2c(c1)[C@@H]([C@H]1c3cc(C(=O)O)cc(O)c3C(=O)c3c(O[C@@H]4O[C@H](CO)[C@@H](O)[C@H](O)[C@H]4O)cccc31)c1cccc(OC3O[C@H](CO)[C@@H](O)[C@H](O)[C@H]3O)c1C2=O (some centres not stated)", "ASSAY_TARGET": "Zinc finger protein mex-5 (Caenorhabditis elegans)", "CLASS_NAME": "active"}
{"MOLECULE": "CCOC(=O)C(=NC(C)C)NNc1cc(Cl)ccc1Cl", "ASSAY_TARGET": "Zinc finger protein mex-5 (Caenorhabditis elegans)", "CLASS_NAME": "inactive"}
{"MOLECULE": "O=c1[nH]c(=O)n(Cc2ccccc2)c(O)c1/C=C1\\C=Nc2ccccc21", "ASSAY_TARGET": "Zinc finger protein mex-5 (Caenorhabditis elegans)", "CLASS_NAME": "active"}

// query Hello, I am checking results. What call was entered for O=C(O)C1Nc2c(Cl)cc(Cl)cc2C2C=CCC12 (configuration not stated) ?
// result active

###

Molecular target: UniProt Q9XUB2
Experiment: MEX-5 RNA-binding inhibition confirmation – biochemical, C. elegans, fluorescence polarization, dose retest (AID 449745);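 also: potency is for blocking Mex-5 binding to labeled TCR2 RNA like unlabeled competitor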
Details: Mex-5 / TCR-2 RNA binding
Records with an inconclusive call do not appear. The source made the active and inactive calls. The rule behind the calls is not given here.
Could you please report measured AC50 for the items listed next?

Answered cases to consult:
{"GIVEN_SMILES": "NS(=O)(=O)c1ccc(-c2ccc(C=C3C(=O)NC(=S)NC3=O)o2)cc1", "RESULT": "8.11 µM"}
{"GIVEN_SMILES": "Cc1ccc(-c2cc(C(=O)O)c3cc(Br)ccc3n2)o1", "RESULT": "> 38 µM (inactive)"}
{"GIVEN_SMILES": "COc1ccc(/C=C2\\C(=O)NC(=S)N2C(=O)c2ccc(C)cc2)cc1", "RESULT": "> 38 µM (inactive)"}

From here, focus on the item given below.
// query Can you look up the measured AC50 of O=C(O)c1ccc(NS(=O)(=O)c2ccc3c(c2)C(=O)c2ccccc2C3=O)cc1 for me?
// result 28.4 µM

###

Target: Zinc finger protein mex-5 (Caenorhabditis elegans)
Assay: MEX-5 RNA-binding inhibition confirmation – biochemical, C. elegans, fluorescence polarization, dose retest (AID 449745);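 also: potency is for blocking Mex-5 binding to labeled TCR2 RNA like unlabeled competitor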
Conditions: Mex-5 / TCR-2 RNA binding
Inconclusive results are not listed. Active and inactive are the calls of the source. How the calls were made is not given here.
EXPERIMENTAL_READOUT: AC50

{"MOLECULE": "O=c1c2ccccc2c(C=Nc2ccc(O)cc2)c(O)n1-c1nccs1", "AC50": "> 38 µM (inactive)"}
{"MOLECULE": "CC(=O)Nc1ccc(S(=O)(=O)NNC(=O)C(=O)NNc2ccccn2)cc1", "AC50": "0.621 µM"}
{"MOLECULE": "N#CC1=C(N)N2C(=C(C#N)C1c1ccccc1)Sc1ccccc12 (stereo not drawn)", "AC50": "5.23 µM"}
{"MOLECULE": "NC(=S)N/N=C/c1cccc(O)c1O", "AC50": "21.2 µM"}
{"MOLECULE": "O=c1[nH]n2c(=O)c3c([nH]c2c1N=Nc1ccccc1)CCC3", "AC50": "< 0.3 µM"}
{"MOLECULE": "O=C(N/N=C/c1c(O)n(C2CC2)c(=S)[nH]c1=O)c1ccccc1O", "AC50": "27.5 µM"}
{"MOLECULE": "Cc1ccc(NC(=O)/C(C#N)=C(\\N)C(Cl)(Cl)Cl)nc1", "AC50": "8.19 µM"}
{"MOLECULE": "CCOC(=O)NNc1ccc2nonc2c1[N+](=O)[O-]", "AC50": "> 38 µM (inactive)"}

I need AC50 for every entry listed below, if you could help.
1. CN1C(=O)/C(=C/c2ccco2)SC1=Nc1cccc(C(=O)O)c1
2. CCn1c(CSc2nnc3ccccn23)nc2cc(C(=O)O)ccc21
3. Cc1nnc(N2C(=O)C(O)=C(C(=O)c3ccco3)C2c2ccc(C(C)C)cc2)s1 (stereo not drawn)
4. CCc1ccc[n+](-c2[nH]c(=O)sc2/C=N/NC([S-])=Nc2ccccc2)c1

// result
> 38 µM (inactive)
33.9 µM
37.2 µM
4.63 µM

// query Can you look up the measured AC50 of CN(C)C1C(=O)C(C(N)=O)=C(O)C2(O)C(=O)C3=C(O)c4c(O)cccc4C(C)(O)C3CC12 (stereo not drawn) for me?
// result > 38 µM (inactive)
